Values from ChEMBL document CHEMBL2163238

The entries below come with measured inhibition at 10 µM values attached.
EXPERIMENTAL_SYSTEM: CYP1A2 (Homo sapiens, UniProt P05177)
Sequence (P05177 whole entry): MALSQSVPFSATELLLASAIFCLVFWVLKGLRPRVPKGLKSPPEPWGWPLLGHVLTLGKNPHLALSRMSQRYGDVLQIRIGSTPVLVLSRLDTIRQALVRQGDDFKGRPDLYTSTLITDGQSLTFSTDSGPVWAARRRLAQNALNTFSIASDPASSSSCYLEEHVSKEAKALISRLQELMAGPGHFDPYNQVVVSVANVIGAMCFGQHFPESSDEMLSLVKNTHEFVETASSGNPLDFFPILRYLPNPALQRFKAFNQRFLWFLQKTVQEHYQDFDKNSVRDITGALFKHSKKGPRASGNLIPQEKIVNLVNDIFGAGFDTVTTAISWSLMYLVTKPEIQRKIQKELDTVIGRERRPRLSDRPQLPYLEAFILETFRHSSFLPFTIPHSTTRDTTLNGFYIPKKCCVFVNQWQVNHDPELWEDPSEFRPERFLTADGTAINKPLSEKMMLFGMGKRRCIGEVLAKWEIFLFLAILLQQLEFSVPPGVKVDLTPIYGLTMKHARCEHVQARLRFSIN
PROTOCOL: Inhibition of human CYP1A2 at 10 uM
Type: ADME
Provide the reading as a plain figure in %.

# count of solved cases: 4
COc1ccccc1OCCCCCCN1C[C@H](O)[C@@H](O)[C@H](O)[C@H]1CO ... -1.6
CCCOc1cccc(CCCN2C[C@H](O)[C@@H](O)[C@H](O)[C@H]2CO)c1 ... 15.9
OC[C@@H]1[C@@H](O)[C@H](O)[C@@H](O)CN1CCCCCCOc1cc(F)ccc1F ... 24.4
CCC(O)(CC)CCCCCCN1C[C@H](O)[C@@H](O)[C@H](O)[C@H]1CO ... 7.9

Here is the next item to consider.
### Prompt Respond only with inhibition at 10 µM recorded for "OC[C@@H]1[C@@H](O)[C@H](O)[C@@H](O)CN1CCCCCCOC1CCCCCC1"
### Response 9
